Target: Transmembrane 4 L6 family member 5 (Homo sapiens)
Sequence (whole entry): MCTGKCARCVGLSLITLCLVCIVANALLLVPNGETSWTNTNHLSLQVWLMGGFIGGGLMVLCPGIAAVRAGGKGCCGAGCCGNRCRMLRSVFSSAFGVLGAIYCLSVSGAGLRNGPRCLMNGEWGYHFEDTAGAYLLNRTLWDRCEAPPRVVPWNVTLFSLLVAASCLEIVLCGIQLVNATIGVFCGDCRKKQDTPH
Assay: Inhibition of TM4SF5 in human SNU449Tp cells assessed as effect on cell morphology at 20 uM incubated for 24 hrs by optical microscopy
Format: cell-based
Activity calls are given as the source filed them. The rule behind the calls is not given here.
Valid outcomes are listed here; reply with one: active, inactive

(Q) Name the outcome recorded for Nc1ccc(C(=O)/C=C/c2ccc(O)cc2)cc1 in the assay.
(A) inactive

(Q) What is the recorded call for this compound in the test? O=C(/C=C/c1ccc(O)cc1)c1ccc(O)cc1
(A) inactive

(Q) Can you look up the reported call for COc1ccc(C(=O)/C=C/c2ccc(O)cc2)cc1 for me?
(A) inactive

(Q) Please state the recorded outcome for this compound: Cc1ccc(S(=O)(=O)Nc2ccc(C(=O)/C=C/c3ccc(O)cc3)cc2)cc1
(A) active
